- TARGET_OF_ASSAY: T1, recombinant human ROR1 extracellular domain (human, UniProt Q01973 30-406)
- T1 construct: biotinylated for the filter lifts; also called huROR1-ECD; human ROR1-ECD
- ASSAY_EXPLANATION: ELISA with prolonged wash, soluble Fab on coated huROR1-ECD
QUANTITY_MEASURED: pKd
One number for each entry, as −log10 of the molar value.

The cases that follow already have their pKd on record.
| BINDER | pKd |
| --- | --- |
| Ab1 Fab variant H1 T32A + L2 T69R (Fab, V domains shown, Fab) VH: QVQLQESGPGLVKPSQTLSLTCTVSGYAFAAYNIHWVRQAPGQGLEWMGSFDPYDGGSSYNQKFKDRLTISKDTSKNQVVLTMTNMDPVDTATYYCARGWYYFDYWGHGTLVTVSS VL: DIVMTQTPLSLPVTPGEPASISCRASKSISKYLAWYQQKPGQAPRLLIYSGSRLQSGIPPRFSGSGYGTDFTLTINNIESEDAAYYFCQQHDESPYTFGEGTKVEIK | 8.64 |
| Ab1 Fab variant H1 T32A + L1 A25P + L2 T69R (Fab, V domains shown, Fab) VH: QVQLQESGPGLVKPSQTLSLTCTVSGYAFAAYNIHWVRQAPGQGLEWMGSFDPYDGGSSYNQKFKDRLTISKDTSKNQVVLTMTNMDPVDTATYYCARGWYYFDYWGHGTLVTVSS VL: DIVMTQTPLSLPVTPGEPASISCRPSKSISKYLAWYQQKPGQAPRLLIYSGSRLQSGIPPRFSGSGYGTDFTLTINNIESEDAAYYFCQQHDESPYTFGEGTKVEIK | 8.68 |
| Ab1 Fab variant H1 T32A + L1 K29E + L2 T69R (Fab, V domains shown, Fab) VH: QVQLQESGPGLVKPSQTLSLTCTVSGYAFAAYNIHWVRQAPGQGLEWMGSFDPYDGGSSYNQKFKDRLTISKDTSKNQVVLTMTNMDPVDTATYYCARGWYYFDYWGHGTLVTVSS VL: DIVMTQTPLSLPVTPGEPASISCRASESISKYLAWYQQKPGQAPRLLIYSGSRLQSGIPPRFSGSGYGTDFTLTINNIESEDAAYYFCQQHDESPYTFGEGTKVEIK | 8.32 |
| Ab1 Fab variant H1 T32A + L1 A25P (Fab, V domains shown, Fab) VH: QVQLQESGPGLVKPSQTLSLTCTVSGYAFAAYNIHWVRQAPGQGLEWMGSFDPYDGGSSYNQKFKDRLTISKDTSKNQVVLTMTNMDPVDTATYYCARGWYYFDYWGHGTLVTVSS VL: DIVMTQTPLSLPVTPGEPASISCRPSKSISKYLAWYQQKPGQAPRLLIYSGSTLQSGIPPRFSGSGYGTDFTLTINNIESEDAAYYFCQQHDESPYTFGEGTKVEIK | 8.74 |
| Ab1 Fab variant H1 T32A + L1 A25P, K29S + L2 T69R (Fab, V domains shown, Fab) VH: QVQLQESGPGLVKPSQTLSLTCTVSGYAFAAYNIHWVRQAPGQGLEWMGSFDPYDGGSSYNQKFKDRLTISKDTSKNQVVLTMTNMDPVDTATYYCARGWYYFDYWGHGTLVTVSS VL: DIVMTQTPLSLPVTPGEPASISCRPSSSISKYLAWYQQKPGQAPRLLIYSGSRLQSGIPPRFSGSGYGTDFTLTINNIESEDAAYYFCQQHDESPYTFGEGTKVEIK | 8.41 |
| Ab1 Fab variant H1 T32A + L1 K29S + L2 T69R (Fab, V domains shown, Fab) VH: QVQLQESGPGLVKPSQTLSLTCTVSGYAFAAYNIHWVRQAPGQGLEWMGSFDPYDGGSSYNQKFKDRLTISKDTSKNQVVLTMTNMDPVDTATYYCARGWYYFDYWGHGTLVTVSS VL: DIVMTQTPLSLPVTPGEPASISCRASSSISKYLAWYQQKPGQAPRLLIYSGSRLQSGIPPRFSGSGYGTDFTLTINNIESEDAAYYFCQQHDESPYTFGEGTKVEIK | 8.68 |
| Ab1 Fab variant H1 T32A + L1 K29S (Fab, V domains shown, Fab) VH: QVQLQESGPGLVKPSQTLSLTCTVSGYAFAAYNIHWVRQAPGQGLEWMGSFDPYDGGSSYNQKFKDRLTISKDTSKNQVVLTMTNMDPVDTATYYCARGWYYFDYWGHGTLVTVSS VL: DIVMTQTPLSLPVTPGEPASISCRASSSISKYLAWYQQKPGQAPRLLIYSGSTLQSGIPPRFSGSGYGTDFTLTINNIESEDAAYYFCQQHDESPYTFGEGTKVEIK | 8.68 |

Please give the measured pKd for this binder: Ab1 Fab variant H1 T32A + L1 K29E (Fab, V domains shown, Fab) VH: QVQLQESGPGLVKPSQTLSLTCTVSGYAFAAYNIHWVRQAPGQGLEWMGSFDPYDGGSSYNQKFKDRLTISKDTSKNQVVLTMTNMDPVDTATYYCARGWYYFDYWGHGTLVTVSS VL: DIVMTQTPLSLPVTPGEPASISCRASESISKYLAWYQQKPGQAPRLLIYSGSTLQSGIPPRFSGSGYGTDFTLTINNIESEDAAYYFCQQHDESPYTFGEGTKVEIK
8.48
